This collection of values is drawn from patent US10239887B2.

- ASSAY_SYSTEM: P450 2C9 (Homo sapiens, UniProt P11712)
- Sequence (P11712 whole entry): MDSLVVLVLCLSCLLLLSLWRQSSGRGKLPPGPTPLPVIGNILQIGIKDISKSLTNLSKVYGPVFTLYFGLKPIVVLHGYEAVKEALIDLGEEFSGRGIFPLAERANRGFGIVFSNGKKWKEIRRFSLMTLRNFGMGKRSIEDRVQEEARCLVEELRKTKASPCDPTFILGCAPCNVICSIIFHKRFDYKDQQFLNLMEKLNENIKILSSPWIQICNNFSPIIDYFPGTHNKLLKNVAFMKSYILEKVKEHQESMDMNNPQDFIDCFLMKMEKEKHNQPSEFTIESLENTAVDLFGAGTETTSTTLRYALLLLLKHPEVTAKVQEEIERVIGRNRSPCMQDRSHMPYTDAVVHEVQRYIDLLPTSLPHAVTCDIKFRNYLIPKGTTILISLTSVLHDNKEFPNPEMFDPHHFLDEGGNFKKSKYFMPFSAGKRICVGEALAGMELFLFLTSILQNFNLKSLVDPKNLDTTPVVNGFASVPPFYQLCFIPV
pIC50: −log10 of the molar value.
READOUT_KIND: pIC50

INSERT INTO results (smiles_structure, assay_system, readout_kind, quantitative_readout) VALUES
  ('Cc1nnc2sc3c(NCc4ccc(C(C)(C)O)cc4)ncnc3c2c1C', 'P450 2C9 (Homo sapiens, UniProt P11712)', 'pIC50', 4.80);

* * *

- METHOD_SUMMARY: in vivo
- CONDITION_DETAILS: cynomolgus monkey, plasma
READOUT_KIND: half-life (h)

INSERT INTO assay_data (smiles_structure, readout_kind, quantitative_readout) VALUES
  ('Cc1nnc2sc3c(NCc4ccc(C(C)(C)O)cc4)ncnc3c2c1C', 'half-life', 4.5);
